Reference source: PubChem BioAssay (NCI)

- System: SK-OV-3 ovarian
- Method Description: NCI tumour cell line growth inhibition, 48 h
Kindly state TGI for each of the entries shown.

response.value for "COC(=O)c1[nH]c(=S)[nH]c(=O)c1-c1ccc(Cl)cc1" (field: TGI) = > 50 µM

response.value for CC12CCC(=O)C=C1CCC1C2CCC2(C)C(C(=O)Cn3cnc4c(=S)nc[nH]c43)CCC12 (stereo not drawn) (field: TGI) = > 100 µM

response.value for C=C1C(=O)O[C@H]2C[C@@H](C)[C@@H]3CC(=O)OC[C@@]3(C)CC12 (stereo partly drawn) (field: TGI) = > 100 µM

---

- Test system: NCI-H23 lung
- Method Description: NCI tumour cell line growth inhibition, 48 h; in the data active = GI50 below about 0.43 µM; inactive = the rest
Allowed answers: y (active), n (inactive)

Enquiry: Could you check what this test reported for "COc1cc2cc(Oc3ccc(NC(=O)Nc4ccc(Cl)c(C(F)(F)F)c4)cc3)c(C)nc2cc1OCCN1CCCCC1" ?
Return: n

Enquiry: Could you check what this test reported for CC12CCC=CC1CCC1C2CCC2(C)C(c3ccc(=O)oc3)CCC12O (stereo unspecified) ?
Return: y

Enquiry: Could you check what this test reported for "CC[C@H](Nc1nc(N)nc(C)c1C#N)c1nc2cccc(CN(C)c3ncc(C(=O)NO)cn3)c2c(=O)n1-c1ccccc1" ?
Return: n

Enquiry: Could you check what this test reported for "N#Cc1ncc(/N=C/c2ccc(N(CCCl)CCCl)cc2)s1" ?
Return: n

Enquiry: Could you check what this test reported for Cc1ccc2[nH]c(C(=O)NN3C(=O)CSC34CCCCC4C)c(-c3ccccc3)c2c1 (stereo unspecified) ?
Return: n

Enquiry: Could you check what this test reported for CC1=C(C(=O)OCc2ccccc2)C(c2ccc3c(c2)OCO3)n2c(nc3ccccc32)N1 (stereo unspecified) ?
Return: n
